I'd appreciate it if you could supply pEC50 values for the items below.
molecular target: hSTING (Homo sapiens, UniProt Q86WV6, G230A/H232R/R293Q/R71H); construct: host or cells: THP1-Dual KO-IFNAR2 cells; test: STING reporter assay (luciferase) in THP1-Dual KO-IFNAR2 cells stimulated with 2′3′cGAMP; type: cell-based; conditions: 15 μM 2′3′cGAMP, 24 h, class symbols
Sequence (Q86WV6 whole entry R71H/G230A/H232R/R293Q): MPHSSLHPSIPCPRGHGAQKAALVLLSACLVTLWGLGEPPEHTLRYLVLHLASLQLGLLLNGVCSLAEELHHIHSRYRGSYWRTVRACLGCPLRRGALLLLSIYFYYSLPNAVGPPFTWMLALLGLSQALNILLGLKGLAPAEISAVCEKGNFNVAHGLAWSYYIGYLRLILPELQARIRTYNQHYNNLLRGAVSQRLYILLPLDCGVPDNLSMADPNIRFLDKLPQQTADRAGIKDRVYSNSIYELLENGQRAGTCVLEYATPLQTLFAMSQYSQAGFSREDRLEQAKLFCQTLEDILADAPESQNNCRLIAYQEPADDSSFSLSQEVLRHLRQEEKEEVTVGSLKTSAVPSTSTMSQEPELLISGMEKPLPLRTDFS
pEC50: −log10 of the molar value.

[
  {
    "Compound": "O=C(Nc1ccc(C(F)(F)F)c(Cl)c1)C(=O)Nc1c[nH]c2ccncc12",
    "pEC50": "6.00 to 6.70"
  },
  {
    "Compound": "O=C(NCc1ccc(Cl)c(OC(F)(F)F)c1)C(=O)Nc1c[nH]c2ccncc12",
    "pEC50": "6.00 to 6.70"
  },
  {
    "Compound": "O=C(Nc1c[nH]c2ncc(F)cc12)C(=O)N[C@@H]1CCC2(CCCCC2)C1 (single isomer, unassigned)",
    "pEC50": "4.00 to 5.30"
  }
]

Lab note: each compound below needs its pEC50 filled in.
1. O=C(Nc1c[nH]c2ncc(F)cc12)C(=O)N[C@H]1CCC2(CCCCC2)C1 (single isomer, unassigned)
2. O=C(Nc1c[nH]c2ccncc12)C(=O)NC1CCC2(CCCCC2)CC1

Response:
1. 5.30 to 6.00
2. 5.30 to 6.00

Lab note: each compound below needs its pEC50 filled in.
1. O=C(Nc1cccc(C(F)(F)F)c1)C(=O)Nc1c[nH]c2ccncc12
2. O=C(NCc1cccc2c1OC(F)(F)O2)C(=O)Nc1c[nH]c2ccncc12

Response:
1: 5.30 to 6.00; 2: 5.30 to 6.00

###

I'd appreciate it if you could supply EC50 values for the items below.
target: hSTING (Homo sapiens, UniProt Q86WV6, G230A/H232R/R293Q/R71H); construct: host or cells: THP1-Dual KO-IFNAR2 cells; assay: STING reporter assay (luciferase) in THP1-Dual KO-IFNAR2 cells stimulated with 2′3′cGAMP; format: cell-based; details: 15 μM 2′3′cGAMP, 24 h, class symbols

These solved cases illustrate the format of a correct answer.
[
  {
    "Compound": "O=C(Nc1c[nH]c2ncc(F)cc12)C(=O)NC1CCC2(CCCCC2)C1 (stereo not shown)",
    "EC50": "5 to 100 µM"
  },
  {
    "Compound": "CC(NC(=O)C(=O)Nc1c[nH]c2cccnc12)c1ccc(C(F)(F)F)cc1 (stereo not shown)",
    "EC50": "1 to 5 µM"
  },
  {
    "Compound": "O=C(NCc1ccc(Cl)c(C(F)(F)F)c1)C(=O)Nc1c[nH]c2cccnc12",
    "EC50": "1 to 5 µM"
  }
]

Let's switch to this compound now.
Query: I would be grateful if you could share the reported EC50 for O=C(Nc1c[nH]c2ncc(F)cc12)C(=O)N[C@H]1CCCC2(CCCCC2)C1 (single isomer, unassigned) .
Response: 1 to 5 µM

Each recorded value in this set is attributed to patent US20230002373A1.
